Data credit: paper PMC12615863

Experiment: Biodistribution in mice bearing PC-3 xenografts
Type: in vivo, Balb/c nu/nu mice
Settings: Balb/c nu/nu, mouse, blood, iv, 100 pmol, total radioactivity, PC-3 xenografted Balb/c nu/nu mice, iv 100 pmol; 24 h pi; mean ± SD, n = 4; read-out: Blood activity uptake
Protocol: Each mouse was xenografted with a subcutaneous injection of 8 × 10⁶ PC-3 cells in the right hind leg. After approximately 4 weeks, the animals were injected into the tail vein with 100 µL of radiopeptide (100 pmol—110–130 kBq, diluted in PBS/BSA). Four animals were used for each time point per peptide. […] At the determined time points, the mice were euthanized, organs were collected and weighed, and their activity content was measured in the gamma counter. […]
# tissue uptake at 24 h annotations
Write the number in %ID/g without appending the unit.

CC(C)C[C@H](NC(=O)C[C@H](O)[C@H](CC(C)C)NC(=O)[C@H](Cc1c[nH]cn1)NC(=O)CN(C)C(=O)[C@@H](NC(=O)[C@H](C)NC(=O)[C@](C)(Cc1c[nH]c2ccccc12)NC(=O)[C@H](CCC(N)=O)NC(=O)[C@@H](Cc1ccccc1)NC(=O)CN1CCC(NC(=O)COCCOCCNC(=O)CN2CCN(CC(=O)O)CCN(CC(=O)O)CCN(CC(=O)O)CC2)CC1)C(C)C)C(N)=O [[^177Lu]Lu-PKB3, metal not drawn]: 0.02

# evaluate next
Q) Look up tissue uptake at 24 h for this compound: CC(C)C[C@H](NC(=O)C[C@H](O)[C@H](CC(C)C)NC(=O)[C@H](Cc1c[nH]cn1)NC(=O)CN(C)C(=O)[C@@H](NC(=O)[C@H](C)NC(=O)[C@](C)(Cc1c[nH]c2ccccc12)NC(=O)[C@H](CCC(N)=O)NC(=O)[C@@H](Cc1ccccc1)NC(=O)CN1CCC(NC(=O)COCCOCCNC(=O)CCC(C(=O)O)N2CCN(CC(=O)O)CCN(CC(=O)O)CCN(CC(=O)O)CC2)CC1)C(C)C)C(N)=O (some centres unmarked) [[^177Lu]Lu-PKB2, metal not drawn]
A) 0.01
